- Test system: hTERT-HMEC
- Method description: percentage of EdU-negative (G0-arrested) nuclei per well, 72 h; higher = more G0 arrest;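 also: secreted proteins added to cultured cells, EdU pulse at the end, nuclei found by Hoechst imaging, EdU status from nuclear versus surrounding ring intensity ratio, PBS as neutral control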
- Test context: protein concentration 0.03125 µM; reference: sequence is the full UniProt precursor, the tested protein was the secreted form or ectodomain
Measured percentage of EdU-negative values are reported for all entries that follow.
Reply with just the number (in %).

Here's what some known entries look like.
MKLAVTLTLVTLALCCSSASAEICPSFQRVIETLLMDTPSSYEAAMELFSPDQDMREAGAQLKKLVDTLPQKPRESIIKLMEKIAQSSLCN :: 4.77
MRPGAPGPLWPLPWGALAWAVGFVSSMGSGNPAPGGVCWLQQGQEATCSLVLQTDVTRAECCASGNIDTAWSNLTHPGNKINLLGFLGLVHCLPCKDSCDGVECGPGKACRMLGGRPRCECAPDCSGLPARLQVCGSDGATYRDECELRAARCRGHPDLSVMYRGRCRKSCEHVVCPRPQSCVVDQTGSAHCVVCRAAPCPVPSSPGQELCGNNNVTYISSCHMRQATCFLGRSIGVRHAGSCAGTPEEPPGGESAEEEENFV :: 4.24
MAGPLRAPLLLLAILAVALAVSPAAGSSPGKPPRLVGGPMDASVEEEGVRRALDFAVGEYNKASNDMYHSRALQVVRARKQIVAGVNYFLDVELGRTTCTKTQPNLDNCPFHDQPHLKRKAFCSFQIYAVPWQGTMTLSKSTCQDA :: 5.05

Please turn your attention to the following entry.
Endpoint output: percentage of EdU-negative of "MKYTSYILAFQLCIVLGSLGCYCQDPYVKEAENLKKYFNAGHSDVADNGTLFLGILKNWKEESDRKIMQSQIVSFYFKLFKNFKDDQSIQKSVETIKEDMNVKFFNSNKKKRDDFEKLTNYSVTDLNVQRKAIHELIQVMAELSPAAKTGKRKRSQMLFRGRRASQ" . Value? 92.2

* * *

- Test system: MCF7
- Method description: percentage of EdU-negative (G0-arrested) nuclei per well, 72 h; higher = more G0 arrest
- Test context: protein concentration 0.225 µM; reference: sequence is the full UniProt precursor, the tested protein was the secreted form or ectodomain
Metric name: percentage of EdU-negative (%)
Reply with just the number (in %).

Here's what some known entries look like.
MLLLPFQLLAVLFPGGNSEHAFQGPTSFHVIQTSSFTNSTWAQTQGSGWLDDLQIHGWDSDSGTAIFLKPWSKGNFSDKEVAELEEIFRVYIFGFAREVQDFAGDFQMKYPFEIQGIAGCELHSGGAIVSFLRGALGGLDFLSVKNASCVPSPEGGSRAQKFCALIIQYQGIMETVRILLYETCPRYLLGVLNAGKADLQRQVKPEAWLSSGPSPGPGRLQLVCHVSGFYPKPVWVMWMRGEQEQQGTQLGDILPNANWTWYLRATLDVADGEAAGLSCRVKHSSLEGQDIILYWRNPTSIGSIVLAIIVPSLLLLLCLALWYMRRRSYQNIP :: 24.2
MRLLVLLWGCLLLPGYEALEGPEEISGFEGDTVSLQCTYREELRDHRKYWCRKGGILFSRCSGTIYAEEEGQETMKGRVSIRDSRQELSLIVTLWNLTLQDAGEYWCGVEKRGPDESLLISLFVFPGPCCPPSPSPTFQPLATTRLQPKAKAQQTQPPGLTSPGLYPAATTAKQGKTGAEAPPLPGTSQYGHERTSQYTGTSPHPATSPPAGSSRPPMQLDSTSAEDTSPALSSGSSKPRVSIPMVRILAPVLVLLSLLSAAGLIAFCSHLLLWRKEAQQATETQRNEKFCLSRLTAEEKEAPSQAPEGDVISMPPLHTSEEELGFSKFVSA [K7EL06] :: 24.7
MEALPLLAATTPDHGRHRRLLLLPLLLFLLPAGAVQGWETEERPRTREEECHFYAGGQVYPGEASRVSVADHSLHLSKAKISKPAPYWEGTAVIDGEFKELKLTDYRGKYLVFFFYPLDFTFVCPTEIIAFGDRLEEFRSINTEVVACSVDSQFTHLAWINTPRRQGGLGPIRIPLLSDLTHQISKDYGVYLEDSGHTLRGLFIIDDKGILRQITLNDLPVGRSVDETLRLVQAFQYTDKHGEVCPAGWKPGSETIIPDPAGKLKYFDKLN :: 27.8
MKVTGIFLLSALALLSLSGNTGADSLGREAKCYNELNGCTKIYDPVCGTDGNTYPNECVLCFENRKRQTSILIQKSGPC :: 25.6
MLWRQLIYWQLLALFFLPFCLCQDEYMESPQTGGLPPDCSKCCHGDYSFRGYQGPPGPPGPPGIPGNHGNNGNNGATGHEGAKGEKGDKGDLGPRGERGQHGPKGEKGYPGIPPELQIAFMASLATHFSNQNSGIIFSSVETNIGNFFDVMTGRFGAPVSGVYFFTFSMMKHEDVEEVYVYLMHNGNTVFSMYSYEMKGKSDTSSNHAVLKLAKGDEVWLRMGNGALHGDHQRFSTFAGFLLFETK [Q9BXJ4] :: 26.4
MVMLLLLLSALAGLFGAAEGQAFHLGKCPNPPVQENFDVNKYLGRWYEIEKIPTTFENGRCIQANYSLMENGKIKVLNQELRADGTVNQIEGEATPVNLTEPAKLEVKFSWFMPSAPYWILATDYENYALVYSCTCIIQLFHVDFAWILARNPNLPPETVDSLKNILTSNNIDVKKMTVTDQVNCPKLS :: 25.9
MARVLKAAAANAVGLFSRLQAPIPTVRASSTSQPLDQVTGSVWNLGRLNHVAIAVPDLEKAAAFYKNILGAQVSEAVPLPEHGVSVVFVNLGNTKMELLHPLGRDSPIAGFLQKNKAGGMHHICIEVDNINAAVMDLKKKKIRSLSEEVKIGAHGKPVIFLHPKDCGGVLVELEQA [Q96PE7] :: 23.1
MQCRLPRGLAGALLTLLCMGLLCLRYHLNLSPQRVQGTPELSQPNPGPPKLQLHDVFIAVKTTRAFHRLRLELLLDTWVSRTREQTFVFTDSPDKGLQERLGSHLVVTNCSAEHSHPALSCKMAAEFDTFLASGLRWFCHVDDDNYVNPRALLQLLRAFPLARDVYVGRPSLNRPIHASEPQPHNRTRLVQFWFATGGAGFCINRKLALKMAPWASGSRFMDTSALIRLPDDCTMGYIIECKLGGRLQPSPLFHSHLETLQLLRTAQLPEQVTLSYGVFEGKLNVIKLQGPFSPEEDPSRFRSLHCLLYPDTPWCPQLGAR :: 29.9
MSPHLTALLGLVLCLAQTIHTQEGALPRPSISAEPGTVISPGSHVTFMCRGPVGVQTFRLEREDRAKYKDSYNVFRLGPSESEARFHIDSVSEGNAGLYRCLYYKPPGWSEHSDFLELLVKESSGGPDSPDTEPGSSAGTVPGTEASGFDAP [Q6ISS4] :: 27.9
MAAALFVLLGFALLGTHGASGAAGFVQAPLSQQRWVGGSVELHCEAVGSPVPEIQWWFEGQGPNDTCSQLWDGARLDRVHIHATYHQHAASTISIDTLVEEDTGTYECRASNDPDRNHLTRAPRVKWVRAQAVVLVLEPGTVFTTVEDLGSKILLTCSLNDSATEVTGHRWLKGGVVLKEDALPGQKTEFKVDSDDQWGEYSCVFLPEPMGTANIQLHGPPRVKAVKSSEHINEGETAMLVCKSESVPPVTDWAWYKITDSEDKALMNGSESRFFVSSSQGRSELHIENLNMEADPGQYRCNGTSSKGSDQAIITLRVRSHLAALWPFLGIVAEVLVLVTIIFIYEKRRKPEDVLDDDDAGSAPLKSSGQHQNDKGKNVRQRNSS :: 25.2

Endpoint output: percentage of EdU-negative of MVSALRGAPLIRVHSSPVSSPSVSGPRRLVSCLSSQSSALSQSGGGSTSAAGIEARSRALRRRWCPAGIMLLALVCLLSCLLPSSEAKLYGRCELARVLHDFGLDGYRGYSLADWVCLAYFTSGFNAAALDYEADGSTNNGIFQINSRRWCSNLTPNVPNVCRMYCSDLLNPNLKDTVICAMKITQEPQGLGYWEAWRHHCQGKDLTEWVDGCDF [Q8IXA5] . Value? 23.6
